Tested on: U2OS
Assay: Multiplex assay against U2OS
Assay type: toxicity, cell-based
Conditions: human, 24 h, 10 µM, compound concentration 10 uM, replicate 2
Consider the following partition of reported Population Mitotic Cells (%) into named classes: low: < 20%; mid: ≥ 20% and < 50%; high: ≥ 50%

Compound | Target System | Class Assignment
Nc1ccc(C(=O)Nc2cccc(-c3nc(N4CCOCC4)c4oc5ncccc5c4n3)c2)cn1 | U2OS | low
CCCn1c(=O)c2[nH]c(C34CC5CC(CC3C5)C4)nc2n(CCC)c1=O [ROLOFYLLINE] | U2OS | mid
c1ccc2oc(-c3csc(C4CCN(Cc5nc6ncccc6[nH]5)CC4)n3)cc2c1 | U2OS | high
O=C(O)c1ccc2cc(-c3ccc(O)c(C45CC6CC(CC(C6)C4)C5)c3)ccc2c1 [O-DEMETHYLATED ADAPALENE] | U2OS | high
CCC(=O)O[C@]1(C(=O)SCF)[C@H](C)C[C@H]2[C@@H]3C[C@H](F)C4=CC(=O)C=C[C@]4(C)[C@@]3(F)[C@@H](O)C[C@@]21C [FLUTICASONE PROPIONATE] | U2OS | mid
Cl.Cl.Nc1ncnc2c1c(-c1cccc(OCc3ccccc3)c1)cn2[C@H]1C[C@@H](CN2CCC2)C1 | U2OS | low
CCc1cc2c(cc1CC)CC(NC[C@H](O)c1ccc(O)c3[nH]c(=O)ccc13)C2 [INDACATEROL] | U2OS | low
CCOc1cc(N2CCC(O)CC2)ccc1Nc1ncc2c(n1)N(C1CCCC1)CCC(=O)N2C | U2OS | high
COc1cc2c(Nc3ccc(NC(=O)c4ccccc4)cc3)ncnc2cc1OCCCN1CCOCC1 | U2OS | high
CC(C)N1CCC(C)(C)c2cc(C#Cc3ccc(C(=O)O)cc3)ccc21 | U2OS | low

Input: Looking at `Nc1nc2c(c(N3CCNCC3)n1)CCC1=C2[C@@H]2CCCC[C@@H]2O1` , which class would you pick?
Output: high

Input: Field: class (Population Mitotic Cells (%)) — entry: `Cc1cn(-c2cc(NC(=O)c3ccc4c(c3)CN(c3cncnc3)C[C@@H]4C)cc(C(F)(F)F)c2)cn1`
Output: high

Input: Exercise: read the entry CCn1c(-c2nonc2N)nc2cnc(Oc3cccc(NC(=O)c4ccc(OCCN5CCOCC5)cc4)c3)cc21 [GSK-269962A] and state which class it falls under.
Output: mid

Input: Lab note: which band did Cc1nc(Cc2cccc(C(F)(F)F)c2)sc1-c1ccc(C(N)=O)nc1 [TP-024n] land in?
Output: high

Input: Hello team, could you let me know which band the following compound falls into: `CNc1oc(-c2cccc3ccccc23)nc1C#N`
Output: low

Input: Would you mind sorting CCOc1cc2ncc(C#N)c(Nc3ccc(OCc4cccc(F)c4)c(Cl)c3)c2cc1NC(=O)/C=C/CN(C)C [HKI-357] into the appropriate category?
Output: low

* * *

Kindly supply the reported Population Pyknosed Nuclei (%) values for the records listed here.
Test system: U2OS
Assay: Multiplex assay against U2OS
Assay type: toxicity, cell-based
Conditions: human, 24 h, 10 µM, compound concentration 10 uM, replicate 2
One number for each entry, in %.

Here are 8 compounds together with their reported answers.
Compound | Display Unit | Population Pyknosed Nuclei (%)
CCc1cc2c(cc1CC)CC(NC[C@H](O)c1ccc(O)c3[nH]c(=O)ccc13)C2 | % | 20
CCC(=O)O[C@]1(C(=O)SCF)[C@H](C)C[C@H]2[C@@H]3C[C@H](F)C4=CC(=O)C=C[C@]4(C)[C@@]3(F)[C@@H](O)C[C@@]21C [FLUTICASONE PROPIONATE] | % | 16
O=C(O)c1ccc2cc(-c3ccc(O)c(C45CC6CC(CC(C6)C4)C5)c3)ccc2c1 | % | 3
CCCn1c(=O)c2[nH]c(C34CC5CC(CC3C5)C4)nc2n(CCC)c1=O | % | 31
c1ccc2oc(-c3csc(C4CCN(Cc5nc6ncccc6[nH]5)CC4)n3)cc2c1 | % | 4
CC(=O)c1cc(-c2cc(C(=O)NC3CC3)ccc2C)c2ncccn12 | % | 24
COc1cc2c(Nc3ccc(NC(=O)c4ccccc4)cc3)ncnc2cc1OCCCN1CCOCC1 | % | 8
Cc1cc2c(cc1N1C(=O)c3cccc4c(CCCO)ccc(c34)C1=O)n(C)c(=O)n2C | % | 18

Okay, here is my list. What is Population Pyknosed Nuclei (%) for each of these?
1. CN(C)C/C=C/C(=O)Nc1cc2c(Nc3ccc(F)c(Cl)c3)ncnc2cc1O[C@H]1CCOC1.O=C(O)/C=C\C(=O)O.O=C(O)/C=C\C(=O)O [AFATINIB DIMALEATE]
2. CCOc1cc2ncc(C#N)c(Nc3ccc(OCc4cccc(F)c4)c(Cl)c3)c2cc1NC(=O)/C=C/CN(C)C
3. CC(C)N1CCC(C)(C)c2cc(C#Cc3ccc(C(=O)O)cc3)ccc21
4. Nc1nc2c(c(N3CCNCC3)n1)CCC1=C2[C@@H]2CCCC[C@@H]2O1

Output:
1. 36
2. 17
3. 2
4. 45
